System: CASKI
method_notes: Primary qHTS to identify gynecologic anti-cancer compounds using libraries of approved drugs and bioactive compounds (AID 1345084); also: nearly all actives have a fitted effect of over 55% in size
details: Gynecologic cancer cell panel viability, ATPlite luminescence, 48 h; series mostly up to 57.5 µM
Records with an inconclusive call do not appear. Active and inactive are the calls of the source. Calls follow the shape of the dose curve; as a rule, active = well fitted cell-killing curve with a large enough effect; inconclusive = small, poorly fitted or top-dose-only effect, or effect the other way; inactive = flat fitted curve, though single readings scatter. *1 amine or outer side, *2 acyl side, *3 side chain or, on linkers, in order; H or OH if unused. Where a SMILES comes first, the peptide text is derived from it. [ ]: non-standard residue; d: D form. X7 = O=C([C@@H](CC(O)CCl)O[*:1])[*:2]; aIle = CC[C@@H](C)[C@H](N)C(=O)O; NMeV = CN[C@H](C(=O)O)C(C)C; NMeA = CN[C@@H](C)C(=O)O; βAla = NCCC(=O)O
Select the correct class. Options are active, inactive and nothing else.

What did this assay record as the result for "Oc1ccc2c(c1)C13CCCC[C@H]1[C@@H](C2)N(CC1CCC1)CC3" ?
inactive

Another molecule to check: COC(=O)C12C(=O)C(C)(O)C(=O)C1(C)C(C)=CC1C3(C=O)CCC(OC(C)=O)C(C)(C)C3CCC12C (configuration not stated)
inactive

Another molecule to check: CC[C@@H](C)[C@@H]1NC(=O)[C@@H]2CCCN2C(=O)[C@@H](CC(O)CCl)OC(=O)CCNC(=O)[C@H](C)N(C)C(=O)[C@H](C(C)C)N(C)C1=O (some centres not stated) (cyclo([NMeA][βAla][X7]P[aIle][NMeV]))
inactive

Another molecule to check: "CC(=O)NCCCOc1ccc(C(=O)N2CCC(N3C(=O)CCc4ccccc43)CC2)cc1"
inactive

Another molecule to check: "CN1CCN(c2nc3ccccc3nc2Cl)CC1"
inactive

Another molecule to check: "CC(C)(C)[C@]1(O)C[C@@H]2OC(=O)C[C@@]23C(=O)O[C@@H]2OC(=O)[C@@H](O)[C@]213"
inactive

Another molecule to check: COC1CC(O[C@H]2CC[C@]3(C)C4CC[C@]5(C)[C@@H](C6=CC(=O)OC6)[C@@H](OC(C)=O)C[C@]5(O)C4CC[C@@H]3C2)OC(C)C1O[C@@H]1O[C@H](CO)[C@@H](O)[C@H](O)[C@H]1O (some centres not stated)
active

====

Tested on: CRL-7250
method_notes: Cytotoxic Profiling of Annotated Libraries Using Quantitative High-Throughput Screening (AID 1296008); also: % is scaled to controls: 0 for no effect and ±100 for the full control effect; nearly all actives have a fitted effect of over 60% in size
details: Five cell lines viability, CellTiter-Glo ATP luminescence, 48-72 h; active compounds read low
Inconclusive results are not listed. *1 amine or outer side, *2 acyl side, *3 side chain or, on linkers, in order; H or OH if unused. Where a SMILES comes first, the peptide text is derived from it. [ ]: non-standard residue; d: D form. X5 = CC(CC(O[*:1])C(=O)[*:2])C(=O)O; NMeV = CN[CH](C(=O)O)C(C)C; NMeA = CN[CH](C)C(=O)O; βAla = NCCC(=O)O
measured_property: max response (%)
Please give a number only; it is taken to be in %.

# query: max response of entry "CC[C@H]1C2CC3[C@@H]4N(C)c5ccccc5[C@]45C[C@@H]([C@H]2[C@H]5O)N3[C@@H]1O"
-2.01

Another molecule to check: CC(=O)C1CCC2C3CCC4C[C@@H](O)CCC4(C)C3CCC12C (some centres undefined)
3.25

Another molecule to check: C#CC1(O)CCC2C3CCC4=CC(=O)CCC4=C3C=CC21C (centres undefined)
-2.47

Another molecule to check: "C=CCN1CCC2(C)c3cc(O)ccc3C[C@H]1[C@H]2C"
-1.35

Another molecule to check: "C=C1C(=O)O[C@@H]2[C@H]3C(=C)[C@@H](O)C[C@H]3C(=C)C[C@@H](O)[C@@H]12"
-8.41

Another molecule to check: "C=CCN1CC[C@]23c4c5ccc(O)c4O[C@H]2[C@@H](O)CC[C@@]3(O)[C@H]1C5"
-15.6

Another molecule to check: "Cc1ccc(Cn2nc(C(=O)N[C@@H]3C(C)(C)[C@@H]4CC[C@@]3(C)C4)cc2-c2ccc(Cl)c(C)c2)cc1"
0.138

Another molecule to check: CO[C@H]1C[C@H](O[C@H]2CC[C@@]3(C)C(=CCC4C3CC[C@]3(C)[C@@H](C5=CC(=O)OC5)CC[C@]43O)C2)O[C@@H](C)[C@@H]1O[C@@H]1O[C@H](CO[C@@H]2O[C@H](CO)[C@@H](O)[C@H](O)[C@H]2O)[C@@H](O)[C@H](O)[C@H]1O (some centres undefined)
-12.8

Another molecule to check: "C=C1CC[C@H]2[C@@H](/C=C(\C)C(=O)[C@@]3(OC(C)=O)C[C@H](C)[C@H](OC(=O)c4ccccc4)[C@@H]3[C@H]1OC(C)=O)C2(C)C"
1.55

Another molecule to check: "COc1ccc(CCNCc2ccc(OC)c3ccccc23)cc1"
-2.06

Another molecule to check: COC(=O)CC1CC2(C(=O)c3c(O)cccc3C2(O)C(=O)OC)C(C)O1 (centres undefined)
2.33

Another molecule to check: "Cc1c(Cl)c(OCC(=O)N2CCN(C)CC2)nc2sc(C(=O)NC3CC3)c(N)c12"
-0.463

Another molecule to check: CCC(C)C1NC(=O)C2CCCN2C(=O)C(CC(C)C(=O)O)OC(=O)CCNC(=O)C(C)N(C)C(=O)C(C(C)C)N(C)C1=O (centres undefined) (cyclo([X5]PI[NMeV][NMeA][βAla]); configuration not given here)
-24.2

Another molecule to check: C[C@H]1CC[C@@H]2[C@@H](C)[C@H]3[C@H](C[C@H]4[C@@H]5CC=C6CC(O[C@@H]7O[C@H](CO)[C@@H](O)[C@H](O[C@@H]8O[C@H](CO)[C@@H](O)[C@H](O)[C@H]8O)[C@@H]7O[C@@H]7O[C@@H](C)[C@H](O)[C@@H](O)[C@H]7O)CC[C@]6(C)[C@H]5CC[C@]34C)N2C1 (some centres undefined)
-16.5
